Entry source: paper PMC5540273

System: IKK-beta
Construct: gene IKBKB
measurement parameters: concentration: 1 μM, replicates: in singlicate; n = 1;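 further: KINOMEscan kinase panel screen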
readout name: %Inh (%)
One number for each entry, in %.

Batch of 7 compounds: report %Inh for each.
1. CCCCc1nn2ncccc2c1-c1ccnc(NC2CC2)n1
2. COc1ccc2cc(-c3nc(-c4ccccc4C(C)C)[nH]c3-c3ccncc3)ccc2c1
3. COc1ccc(Nc2nccc(N3CCC(NC(=O)C(C)c4ccc(Cl)cc4)CC3)n2)cc1 (stereo not drawn)
4. CNc1nc(-c2ccc3c(N)n[nH]c3c2)cc(N2C[C@@H](C(=O)NC3CCCCC3)OC[C@H]2C)n1
5. CNc1nc(-c2ccc3c(N)n[nH]c3c2)cc(N2C[C@@H](C(=O)Nc3ccccc3)CC[C@H]2C)n1
6. Cc1cccc2c(-c3ccncn3)c(-c3ccc(F)cc3)nn12
7. Cc1ccc(-c2nc(Nc3ccncc3)c3ccccc3n2)s1

1. 3
2. 26
3. 0
4. 0
5. 0
6. 18
7. 20

###

Tested on: NDR2
measurement parameters: concentration: 1 μM, replicates: in singlicate; n = 1
Exercise: for every item that follows, state its recorded %Inh.
Give bare numbers, in %.

Past entries and their recorded results:
molecule	%Inh [%]
CCn1c(-c2c(N)noc2C)nc2cnccc21 [SB-737856]	0
CCCCc1nn2ncccc2c1-c1ccnc(NC2CC2)n1 [GW684374]	10
Cc1ccccc1Cn1ccn2c(=O)cc(N3CCOCC3)nc12 [GSK2269905]	0
COc1ccc(Nc2nccc(-c3ccc(NC(=O)c4cc5cc(F)ccc5[nH]4)cc3)n2)cc1 [GSK1229496]	2
CC(C)c1cc(-c2ccc3c(N)n[nH]c3c2)nc(N)n1 [GSK2250882]	0

Batch of 8 molecules: report %Inh for each.
1. CS(=O)(=O)CCNCc1nc(-c2ccc3ncnc(Nc4ccc(OCc5ccccc5)c(Cl)c4)c3c2)cs1.Cl [GW582764]
2. COC(=O)C(NC(=O)NC1CCN(c2ccnc(Nc3ccc(F)cc3)n2)C1)c1ccccc1 (stereo not drawn) [GSK1379712]
3. Nc1nccc(-c2c(-c3ccc(F)cc3)ncn2C2CCN(Cc3ccccc3)CC2)n1 [SB-219980]
4. Cl.Cl.Cl.N#Cc1ccc(CCNc2nccc(-c3cccc(CN4CCNCC4)c3)n2)cc1 [GSK2137462]
5. COC(=O)c1cccc(NC(=O)NC2CCN(c3ccnc(Nc4ccc(F)cc4)n3)C2)c1 (stereo not drawn) [GSK1379725]
6. COc1ccc(CSc2nnc(-c3ccc4nccn4c3)o2)cc1C(F)(F)F
7. CNc1cc(-c2ccc3c(N)n[nH]c3c2)nc(N)n1 [GSK2224810]
8. COc1ccc(Nc2nccc(N3CCC(NC(=O)c4cc5ccccc5s4)C3)n2)cc1 (stereo not drawn) [GSK1379738]

1: 0; 2: 32; 3: 16; 4: 0; 5: 0; 6: 12; 7: 19; 8: 0

Batch of 5 molecules: report %Inh for each.
1. COc1nccc(-c2c(-c3ccc(F)cc3)ncn2CCCN2CCOCC2)n1 [SB-282852]
2. Nc1cccc(-c2ccc3c(N)n[nH]c3c2)n1 [GSK2192730]
3. Cc1ccc(-c2nc(Nc3ccncc3)c3ccccc3n2)s1 [GSK189015]
4. CS(=O)(=O)Cc1ccc(Nc2nccc(-c3c(-c4cccc(NC(=O)C5CCCCC5)c4)nn4ncccc34)n2)cc1 [GSK350559]
5. O=c1cc(N2CCOCC2)nc2n(Cc3cccc(Cl)c3Cl)c3ccccc3n12 [GSK2299009]

0
0
0
17
0
